readout-kind: melting point

{"smi": "Cn1cc(-c2cnc3[nH]cc(-c4nnc(Nc5ccccc5)o4)c3c2)cn1", "melting point": "324 to 326 °C"}

Record "COc1ccccc1CNc1nnc(-c2c[nH]c3ncc(-c4cnn(C)c4)cc23)o1" . Reported melting point: 253 to 254 °C

Record "CCOc1ccccc1Nc1nnc(-c2c[nH]c3ncc(-c4cnn(C)c4)cc23)o1" . Reported melting point: 274 to 275 °C

Record "Cn1cc(-c2cnc3[nH]cc(-c4nnc(Nc5ccccc5F)o4)c3c2)cn1" . Reported melting point: 295 to 297 °C

Record "Cn1cc(-c2cnc3[nH]cc(-c4nnc(NCc5ccc6c(c5)OCO6)o4)c3c2)cn1" . Reported melting point: 281 to 283 °C
